FYI, the data here is from PubChem BioAssay AID2060882.

- Tested on: 898857-211-R-J1-PDC complex spheroids, growth % test/control;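 further: spheroids exposed to compound for seven days before readout; 100% = DMSO vehicle control wells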
- assay_summary: Anticancer human tumor 898857-211-R-J1-PDC patient-derived melanoma cell line growth inhibition [RAS]
- measurement_parameters: second compound 0.00316 µM; first compound 3.16 µM; stronger effect = lower value
readout_label: viability, T/C (%)

CC(Nc1ccc2c(c1)OCCn1cc(N3C(=O)OCC3C(F)F)nc1-2)C(N)=O (stereo not drawn) + C=CC(=O)N1CCN(c2nc(OCC3CCCN3C)nc3c(F)c(-c4nc(N)cc(C)c4C(F)(F)F)c(Cl)cc23)C(C)C1	94.8
C[C@@H](NC(=O)c1ncnc(N)c1Cl)c1ncc(C(=O)Nc2cc(C(F)(F)F)c(Cl)cn2)s1 + C=CC(=O)N1CCN(c2nc(OCC3CCCN3C)nc3c(F)c(-c4nc(N)cc(C)c4C(F)(F)F)c(Cl)cc23)C(C)C1	63.6
CC(=O)OC12COC1CC(O)C1(C)C(=O)C(O)C3=C(C)C(OC(=O)C(O)C(NC(=O)OC(C)(C)C)c4ccccc4)CC(O)(C(OC(=O)c4ccccc4)C21)C3(C)C (stereo not drawn) + C=CC(=O)N1CCN(c2nc(OCC3CCCN3C)nc3c(F)c(-c4nc(N)cc(C)c4C(F)(F)F)c(Cl)cc23)C(C)C1	21.2
Cc1nc(N2CCC3(CC2)COC(C)C3N)c(CO)nc1Sc1ccnc(N)c1Cl (stereo not drawn) + C=CC(=O)N1CCN(c2nc(OCC3CCCN3C)nc3c(F)c(-c4nc(N)cc(C)c4C(F)(F)F)c(Cl)cc23)C(C)C1	98.5
CC(C)NCC(C(=O)N1CCN(c2ncnc3c2C(C)CC3O)CC1)c1ccc(Cl)cc1 (stereo not drawn) + C=CC(=O)N1CCN(c2nc(OCC3CCCN3C)nc3c(F)c(-c4nc(N)cc(C)c4C(F)(F)F)c(Cl)cc23)C(C)C1	81.2
CC1(O)CCCC1n1c(=O)c(C(F)F)cc2cnc(NC3CCN(S(C)(=O)=O)CC3)nc21 (stereo not drawn) + C=CC(=O)N1CCN(c2nc(OCC3CCCN3C)nc3c(F)c(-c4nc(N)cc(C)c4C(F)(F)F)c(Cl)cc23)C(C)C1	47.1
CCC(CC)c1cc(NC2CCC(N)C2)n2nccc2n1 (stereo not drawn) + C=CC(=O)N1CCN(c2nc(OCC3CCCN3C)nc3c(F)c(-c4nc(N)cc(C)c4C(F)(F)F)c(Cl)cc23)C(C)C1	1.15
NC1c2ccccc2OC12CCN(c1cnc3c(N4CCCc5ncccc54)n[nH]c3n1)CC2 (stereo not drawn) + C=CC(=O)N1CCN(c2nc(OCC3CCCN3C)nc3c(F)c(-c4nc(N)cc(C)c4C(F)(F)F)c(Cl)cc23)C(C)C1	79.9
